System: Monkeypox virus
Experiment notes: Inhibitory concentration required against Monkeypox virus in Vero cell culture
Assay type: functional, organism-based
Catalogue of IC50 readings, one per entry.
Number only, in µM; omit the unit.

Nc1ncnc2c1ncn2C[C@H]1COP(=O)(O)CO1
48

We now examine a further compound.
Query string: Provide measured IC50 on Monkeypox virus for Nc1ncnc2c1ncn2C[C@H](O)CO [(S)-DHPA] please.
Result string: 54
